Values were extracted from patent US20060069132A1.

# Test system: lambsquarters
# testDetails: Test B pre-/postemergence herbicide test
# Assay type: in vivo, Chenopodium album
# settings: 125 g ai/ha; 0 is no effect, 100 is complete control; preemergence
Below: a set of entries, each annotated with reported Plant response rating (0 to 100 scale), Lambsquarters.
No unit in the answer, only the number.

# example entries with known answers
[[record]]
compound = "COC(=O)c1ccc(F)c(NC(=O)c2nn(C(C)C)nc2C)c1 [Compound 398]"
testvalue = 0

[[record]]
compound = "CCc1nn(C(C)(C)CC)nc1C(=O)Nc1cccc(C(=O)N2CC=CC2)c1 [Compound 369]"
testvalue = 100

[[record]]
compound = "CCNC(=O)c1ccc(F)c(N(C(C)=O)C(=O)c2cc(C(C)(C)C)nn2CC)c1 [Compound 399]"
testvalue = 100


Challenge: For the compound shown here, Cc1nn(C(C)(C)C)nc1C(=O)Nc1cccc(C(=O)N(C)C)c1 [Compound 391] , give the reported Plant response rating (0 to 100 scale), Lambsquarters.
Response given: 100

Challenge: Data request, read-out Plant response rating (0 to 100 scale), Lambsquarters, for Cc1nn(C(C)(C)C)cc1C(=O)Nc1cc(C(=O)N(C)C)ccc1F [Compound 344]
Response given: 90

Challenge: Requested read-out: Plant response rating (0 to 100 scale), Lambsquarters. Entry: C=CCN(CC=C)C(=O)c1cccc(NC(=O)c2nn(C(C)C)nc2CC)c1 [Compound 390]
Response given: 30

Challenge: Name the reported Plant response rating (0 to 100 scale), Lambsquarters value associated with the compound C=CCN(CC=C)C(=O)c1ccc(F)c(NC(=O)c2cc(C(C)(C)C)nn2CC)c1 [Compound 431]
Response given: 60

Challenge: What value of Plant response rating (0 to 100 scale), Lambsquarters has been recorded for this entry: CCc1nn(C(C)C)nc1C(=O)Nc1cccc(C(=O)N2CC=CC2)c1 [Compound 359]
Response given: 0

Challenge: What value of measured Plant response rating (0 to 100 scale), Lambsquarters is listed for C#CCOc1cccc(NC(=O)c2cc(C(C)(C)C)nn2CC)c1 [Compound 411] ?
Response given: 50

----------
# Test system: giant foxtail
# testDetails: Test B pre-/postemergence herbicide test
# Format: in vivo, Setaria faberi
# settings: postemergence, 125 g ai/ha; scale 0 to 100
recordedEndpoint: Foxtail, Giant plant response rating
Simply state the number, no unit and no words.

[[record]]
structure = "CCc1nn(C(C)(C)C)nc1C(=O)Nc1cccc(C(=O)N2CCCCC2)c1"
testvalue = 20

[[record]]
structure = "C=CCOc1cccc(NC(=O)c2cc(C(C)(C)C)nn2CC)c1"
testvalue = 30

[[record]]
structure = "CCOC(=O)c1ccnc(NC(=O)c2nn(C(C)(C)C)nc2C)c1"
testvalue = 0

[[record]]
structure = "C=CCN(CC=C)C(=O)c1ccc(F)c(NC(=O)c2cc(C(C)(C)C)nn2CC)c1"
testvalue = 20

[[record]]
structure = "C#CCOc1cccc(NC(=O)c2cc(C(C)(C)C)nn2CC)c1"
testvalue = 20


Here's the next entry for you.
Challenge: // query Foxtail, Giant plant response rating value for entry CCc1nn(C(C)(C)C)nc1C(=O)Nc1cccc(C(=O)NC2CC2)c1
Response given: 20

----------
# Tested on: barnyardgrass
# testDetails: Test B pre-/postemergence herbicide test
# Format: in vivo, Echinochloa crus-galli
# settings: Postemergence, 500 g ai/ha; visual rating after 13 to 15 days, scale 0 (no effect) to 100 (complete control)
Plant response rating, Barnyardgrass: recorded values
Field format: numeric only.

Previously resolved entries follow.
[[record]]
compound = "CCn1nc(C(C)(C)C)cc1C(=O)Nc1cccc(C(C)=NO)c1 [Compound 108]"
testvalue = 70

[[record]]
compound = "CCn1nc(C(C)(C)C)cc1C(=O)Nc1ccc(F)c(C(=O)NCCF)c1 [Compound 60]"
testvalue = 10


Challenge: What does the record list as Plant response rating, Barnyardgrass for CC(=NO)c1cccc(NC(=O)c2cc(C(C)(C)C)nn2CC(F)(F)F)c1 [Compound 112] ?
Response given: 70

Challenge: For CCn1nc(C(C)(C)C)cc1C(=O)Nc1cccc(C(=O)OC(C)C)c1C [Compound 92] , what is its reported Plant response rating, Barnyardgrass?
Response given: 0

Challenge: Consider the compound CCOC(=O)c1cccc(NC(=O)c2cc(C(C)(C)C)nn2CCF)c1 [Compound 79] and give its measured Plant response rating, Barnyardgrass.
Response given: 40
